- test_system: HLA-DR1 (HLA-DRα*0101 and HLA-DRβ1*0101) (human)
- assay_summary: ELISA; competitive peptide-binding assay: test peptide 10^-4-10^-10 M against 4.5 nM biotinylated CLIP 99-117 marker peptide for 0.1 μg refolded HLA-DR1-CLIP 105-117; 20 mM MES, 140 mM NaCl, 0.02% NaN3, pH 5, overnight at 37 °C; HLA-DR1 captured on anti-DR L243, bound marker detected with streptavidin-HRP; % competitive inhibition, four-parameter fit
quantity_measured: IC50 (nM)
Respond with the bare value in nM.

Fill in: IC50 of FARRPPLAELAALNLSGSRL [5T4_(111–130) 20-mer peptide] is ___
176
